Every entry's value here was drawn from patent US20240052052A1.

Overview of reported Max MFI across a group of binders:
measured-target: T1, human CD24 (human, UniProt P25063 27-59, heavily glycosylated, GPI-anchored (as described in the background))
T1 construct: whole, on cells; Target of all cell-based FACS assays; also called hCD24; Cluster of differentiation 24
T1 chain (looked up): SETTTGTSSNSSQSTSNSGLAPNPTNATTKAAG
test-summary: FACS, 5637 cells
Lab note: record the figure alone, no unit after it.

As a guide, the following entries are already answered.
binder: 73H5-1G2 (antibody, V domains shown, mouse monoclonal antibody) VH: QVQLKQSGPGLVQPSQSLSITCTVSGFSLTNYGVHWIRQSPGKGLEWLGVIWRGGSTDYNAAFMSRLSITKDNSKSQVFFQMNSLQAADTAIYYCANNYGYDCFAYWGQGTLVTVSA VL: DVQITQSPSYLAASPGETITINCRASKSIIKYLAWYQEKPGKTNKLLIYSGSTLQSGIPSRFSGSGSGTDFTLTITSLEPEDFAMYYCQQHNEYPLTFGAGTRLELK
Max MFI: 7440

binder: ch100F2E3-hIgG4 (antibody, V domains shown, chimeric) VH: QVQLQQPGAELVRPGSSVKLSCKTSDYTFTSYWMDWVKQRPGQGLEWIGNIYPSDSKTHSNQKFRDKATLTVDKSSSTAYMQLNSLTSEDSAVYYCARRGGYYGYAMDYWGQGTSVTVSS VL: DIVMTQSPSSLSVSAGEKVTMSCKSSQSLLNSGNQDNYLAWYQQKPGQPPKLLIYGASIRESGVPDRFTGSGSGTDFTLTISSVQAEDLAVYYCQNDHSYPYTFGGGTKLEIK
Max MFI: 20200

Please report the measured Max MFI for ch56A7E3-hIgG4 (antibody, V domains shown, chimeric) VH: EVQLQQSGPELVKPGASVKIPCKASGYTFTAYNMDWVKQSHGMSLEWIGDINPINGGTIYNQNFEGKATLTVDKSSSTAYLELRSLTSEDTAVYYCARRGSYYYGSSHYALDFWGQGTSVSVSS VL: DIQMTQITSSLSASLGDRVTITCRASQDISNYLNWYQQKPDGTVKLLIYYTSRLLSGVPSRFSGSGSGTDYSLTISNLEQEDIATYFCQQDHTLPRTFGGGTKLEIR
61100

Query Max MFI for ch110D4G4-hIgG4 (antibody, V domains shown, chimeric; also called chAb110D4G4) VH: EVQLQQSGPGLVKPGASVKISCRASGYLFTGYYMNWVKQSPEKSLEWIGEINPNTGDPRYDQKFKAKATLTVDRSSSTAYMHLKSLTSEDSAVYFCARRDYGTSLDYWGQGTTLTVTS VL: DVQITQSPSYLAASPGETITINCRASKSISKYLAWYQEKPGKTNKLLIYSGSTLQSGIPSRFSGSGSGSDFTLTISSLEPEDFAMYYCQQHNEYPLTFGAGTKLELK
49900

Item ch81A1F8-hIgG4 (antibody, V domains shown, chimeric; also called chAb81A1F8; ch81A1F8-IgG4) VH: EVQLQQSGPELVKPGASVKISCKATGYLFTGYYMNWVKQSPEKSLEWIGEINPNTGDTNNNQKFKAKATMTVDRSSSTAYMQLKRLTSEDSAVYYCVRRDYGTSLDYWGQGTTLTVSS VL: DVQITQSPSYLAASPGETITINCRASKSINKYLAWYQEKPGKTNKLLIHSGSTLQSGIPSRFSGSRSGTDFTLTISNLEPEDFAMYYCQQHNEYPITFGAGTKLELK : provide Max MFI
54100
